Provide the reported z-score of each item.
protocol-notes: E. coli acrAB mutant growth effects, primary screen, E. coli filamentation inducers, strain DRC39, OD650, 48 h (AID 1179);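 also: screen aims at cell division blockers that make cells filament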
applied-conditions: E. coli DRC39 delta-acrAB growth, higher = more signal, called active from +8 up or from −8 down
Hey, just send me the number, nothing else.

Note to self: z-score recorded for CC(C)(C)N1C(=O)[C@H]2[C@H]3[C@H](O)[C@H](O)CC(=NNC(=O)OCc4ccccc4)[C@H]3CC[C@H]2C1=O was -0.645

Recorded result, COc1ccc(OC[C@@H](CO)OC)cc1 , z-score: 0.178

Record COc1ccc2c(c1)O[C@@H](c1cccc(C(F)(F)F)c1)[C@H](O)C2=O , field z-score: 1.34

Short answer for CCCNC(=O)OC[C@H]1O[C@H](CCON=C[C@@H](NS(=O)(=O)c2ccc(C)cc2)[C@H](C)C=CCC(=O)OC)C=C[C@@H]1Oc1ccc(OC)cc1 : z-score was -0.138
